- experimental.target: NOD1 (Homo sapiens)
- Sequence (Q9Y239 1-953): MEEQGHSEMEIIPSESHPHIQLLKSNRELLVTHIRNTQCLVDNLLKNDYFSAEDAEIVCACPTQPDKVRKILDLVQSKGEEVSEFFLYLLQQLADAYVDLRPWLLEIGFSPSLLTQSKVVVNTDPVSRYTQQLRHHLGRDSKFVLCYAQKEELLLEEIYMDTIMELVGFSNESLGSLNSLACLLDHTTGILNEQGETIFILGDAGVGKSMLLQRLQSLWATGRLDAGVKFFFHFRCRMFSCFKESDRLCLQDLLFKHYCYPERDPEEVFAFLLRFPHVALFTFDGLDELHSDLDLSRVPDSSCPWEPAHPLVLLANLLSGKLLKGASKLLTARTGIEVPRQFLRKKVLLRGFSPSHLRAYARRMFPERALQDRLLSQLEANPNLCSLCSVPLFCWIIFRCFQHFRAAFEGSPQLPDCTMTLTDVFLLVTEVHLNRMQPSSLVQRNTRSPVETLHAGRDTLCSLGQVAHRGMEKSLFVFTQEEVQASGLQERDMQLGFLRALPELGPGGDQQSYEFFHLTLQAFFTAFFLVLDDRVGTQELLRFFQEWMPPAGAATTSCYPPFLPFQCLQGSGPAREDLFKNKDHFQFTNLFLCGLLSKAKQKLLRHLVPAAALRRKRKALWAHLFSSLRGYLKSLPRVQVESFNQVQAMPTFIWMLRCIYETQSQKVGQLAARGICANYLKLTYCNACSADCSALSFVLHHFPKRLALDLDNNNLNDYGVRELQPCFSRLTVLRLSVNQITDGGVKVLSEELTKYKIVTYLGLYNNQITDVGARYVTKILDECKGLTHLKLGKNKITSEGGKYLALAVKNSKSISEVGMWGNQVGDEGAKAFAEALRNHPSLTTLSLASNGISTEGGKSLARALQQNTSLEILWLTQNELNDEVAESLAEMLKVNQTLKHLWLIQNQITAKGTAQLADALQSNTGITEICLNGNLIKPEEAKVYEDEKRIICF
- measurement.description: Microscale thermophoresis (MST) binding to purified NOD1-GFP
- test.conditions: Fig 6D, one representative experiment; read-out: Kd (NOD1/ligand)

molecule	Kd (µM)
CCCCCCCCCCCCC/C=C/[C@@H](O)[C@@H](N)COP(=O)(O)O [S1P, sphingosine‐1‐phosphate]	2.09

###

- experimental.target: NOD2 (Homo sapiens)
- Sequence (Q9HC29 whole entry): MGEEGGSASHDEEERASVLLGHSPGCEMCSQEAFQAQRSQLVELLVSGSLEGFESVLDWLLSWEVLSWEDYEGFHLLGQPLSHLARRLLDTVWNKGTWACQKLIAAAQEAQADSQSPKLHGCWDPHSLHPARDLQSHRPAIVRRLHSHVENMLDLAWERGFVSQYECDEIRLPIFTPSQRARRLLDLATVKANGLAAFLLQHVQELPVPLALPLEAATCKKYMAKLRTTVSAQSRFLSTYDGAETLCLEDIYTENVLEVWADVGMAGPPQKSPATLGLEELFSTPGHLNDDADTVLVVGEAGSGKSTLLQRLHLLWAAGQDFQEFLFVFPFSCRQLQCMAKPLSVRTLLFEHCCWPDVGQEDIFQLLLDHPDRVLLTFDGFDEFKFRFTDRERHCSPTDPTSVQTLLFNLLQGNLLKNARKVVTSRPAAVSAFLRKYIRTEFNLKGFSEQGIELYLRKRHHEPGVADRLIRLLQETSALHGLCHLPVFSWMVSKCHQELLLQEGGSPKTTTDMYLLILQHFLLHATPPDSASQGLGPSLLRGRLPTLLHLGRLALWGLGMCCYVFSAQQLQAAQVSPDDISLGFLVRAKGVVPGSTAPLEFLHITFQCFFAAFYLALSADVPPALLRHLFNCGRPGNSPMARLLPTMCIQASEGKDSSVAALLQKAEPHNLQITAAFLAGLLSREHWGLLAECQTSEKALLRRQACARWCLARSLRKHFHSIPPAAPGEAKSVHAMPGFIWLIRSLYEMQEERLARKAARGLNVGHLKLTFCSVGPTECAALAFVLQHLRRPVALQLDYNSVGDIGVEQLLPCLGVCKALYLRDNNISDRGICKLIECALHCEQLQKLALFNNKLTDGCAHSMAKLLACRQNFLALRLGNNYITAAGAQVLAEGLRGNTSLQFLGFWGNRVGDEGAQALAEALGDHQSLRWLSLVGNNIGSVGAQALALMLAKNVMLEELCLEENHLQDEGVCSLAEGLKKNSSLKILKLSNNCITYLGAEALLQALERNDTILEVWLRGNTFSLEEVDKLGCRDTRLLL
- measurement.description: Microscale thermophoresis (MST) binding to purified NOD2-GFP
- test.conditions: Fig EV5C, purified NOD2; read-out: Kd (NOD2/ligand)
attribute.measured: Kd (µM)

molecule	experimental.target	attribute.measured	data.value
CCCCCCCCCCCCC/C=C/[C@@H](O)[C@@H](N)COP(=O)(O)O [S1P, sphingosine‐1‐phosphate]	NOD2 (Homo sapiens)	Kd	3.19

###

- experimental.target: UniProt Q9Y239
- measurement.description: Microscale thermophoresis (MST) binding to purified NOD1-GFP
- test.conditions: read-out: Kd value of ADP alone with NOD1
pKd: −log10 of the molar value.

molecule	pKd
Nc1ncnc2c1ncn2[C@@H]1O[C@H](COP(=O)(O)OP(=O)(O)O)[C@@H](O)[C@H]1O [ADP]	~7.00

###

- experimental.target: NOD1 (Homo sapiens)
- measurement.description: Microscale thermophoresis (MST) binding to purified NOD1-GFP
- test.conditions: Kd(NOD1 WT: S1P), Fig 7E

compound	experimental.target	value.units	Kd
CCCCCCCCCCCCC/C=C/[C@@H](O)[C@@H](N)COP(=O)(O)O [S1P, sphingosine‐1‐phosphate]	NOD1 (Homo sapiens)	µM	2.2
